- Tested on: SN12C renal
- assay method text: NCI tumour cell line growth inhibition, 48 h
measured endpoint: TGI (µM)
Expressed in µM, but write only the number.

See these solved cases before continuing.
| molecule | measurement units | TGI |
| --- | --- | --- |
| C/C(=C/CCC(C)[C@@H]1CC[C@]2(C)C3=C(CC[C@@]12C)[C@@]1(C)CCC(=O)C(C)(C)[C@@H]1CC3)C(=O)O (some centres undefined) | µM | 2.89 |
| C[n+]1c2ccccc2n2c3ccccc3c(NCCCn3ccnc3)c(C#N)c21 | µM | 4.09 |

Exam item: What measured TGI goes with `CC(=O)Oc1cc2c(cc1OCC(F)(F)F)[C@H]1CC[C@]3(C)[C@@H](OC(C)=O)CC[C@H]3[C@@H]1CC2=O` ?
Marked response: 57.6

Exam item: What measured TGI goes with `COc1ccc(/C=C/C(=O)c2c(-c3ccccc3)nn(C)c(=O)c2N2CCCCC2)cc1` ?
Marked response: 64.2

Exam item: What measured TGI goes with `Nc1nc(Cl)c2ncn(Cc3ccc(C45CC6CC(CC(C6)C4)C5)c(OCc4cc(F)c(F)cc4F)c3)c2n1` ?
Marked response: 11.3

Exam item: What measured TGI goes with `O=C(Nc1nc2ccc(S(=O)(=O)Nc3ccc(C4(C(F)(F)F)CC4)cc3)cc2[nH]1)c1cnccn1` ?
Marked response: 17.6

###

Listing of recorded TGI by entry.
- Tested on: CCRF-CEM leukemia
- assay method text: NCI tumour cell line growth inhibition, 48 h
Expressed in µM, but write only the number.

| molecule | measured endpoint | quantitative readout |
| --- | --- | --- |
| COc1cc(C2c3cc4c(cc3[C@@H](Nc3ccc(F)cc3)C3COC[C@H]23)OCO4)cc(OC)c1O (stereo not given in full) | TGI | 8.45 |
| CCCCCCCCCCCC1=C(O)C(=O)C(CC2=C(O)C(=O)C(CCCCCCCCCCC)=C(O)C2=O)=C(O)C1=O | TGI | 64.4 |

Turning to the following molecule.
Exam item: What measured TGI goes with `Cc1ccc(-n2c3nc(=O)n(C)c(=O)c-3nc3ccccc32)c(C)c1` ?
Marked response: 41.6

###

Listing of recorded GI50 by entry.
- System: OVCAR-5 ovarian
- assay method text: NCI tumour cell line growth inhibition, 48 h

See these solved cases before continuing.
| compound | measured endpoint | result |
| --- | --- | --- |
| NC(=O)c1nc(-c2c(F)cccc2Cl)oc1Nc1ccc(C(=O)N2CCOCC2)cc1 | GI50 | 2.31 µM |
| CC[n+]1c(-c2ccccc2)c2cc(N)ccc2c2ccc(N)cc21 | GI50 | 5.67 µM |
| OCC1OC(OC2(CO)OC(CO)C(O)C2O)C(O)C(O)C1O (stereo not given) | GI50 | > 100 µM |
| NCCCNc1nc2ccccc2c2c(=O)c3cc(Cl)ccc3sc12 | GI50 | 1.67 µM |

Turning to the following compound.
Exam item: What measured GI50 goes with `O=C1c2cccc3c(N4CCOCC4)ccc(c23)C(=O)N1CCN1CCN(CCCCCN2CCN(CCN3C(=O)c4cccc5c(N6CCOCC6)ccc(c45)C3=O)CC2)CC1` ?
Marked response: > 100 µM

###

- System: TK-10 renal
- assay method text: NCI tumour cell line growth inhibition, 48 h
Listing of recorded TGI by entry.

| compound | measured endpoint | result |
| --- | --- | --- |
| Cn1c(CO)ccc1-c1ccc(-c2ccc(CO)[se]2)[se]1 | TGI | > 78.1 µM |
| N=C(N)n1cc(/C=N/N=C(N)N)cn1 | TGI | > 100 µM |
| BrC1(c2ccccc2)C[n+]2c(-c3ccccc3)cc(-c3ccccc3)cc2-c2ccccc21 (stereo not given) | TGI | 20.6 µM |
| N#Cc1cc(F)cc(Oc2ccc(S(=O)(=O)C(F)F)c3c2CC(F)(F)[C@H]3O)c1 | TGI | 82.4 µM |
| CC(C)c1ccc(Cc2ccc(C(C)C)c(NC(=O)C(=O)Cc3cnc4ccccc4n3)c2C(C)C)c(C(C)C)c1NC(=O)C(=O)Cc1cnc2ccccc2n1 | TGI | > 100 µM |
| O=[N+]([O-])c1cccnc1S(=O)(=O)c1ccccc1 | TGI | 22.2 µM |
| CC(C)(NO)/C(=N\O)c1ccccc1 | TGI | > 10 µM |
| COc1c(OC2OC(CO)C(O)C(O)C2O)cc2c(c1OC)-c1ccc(OC)c(=O)cc1C(NC(C)=O)CC2 (stereo not given) | TGI | > 100 µM |
| O=C1OC(=O)c2c1nc1ccccc1c2-c1ccccc1 | TGI | > 100 µM |
| CCCCCCCCCCCCOCC(COP(=O)(O)OCCN=[N+]=[N-])OC(=O)CCCCCCCCCCC (stereo not given) | TGI | > 100 µM |

Exam item: What measured TGI goes with CC1CCCP(=O)(c2ccccc2)CCC1 (stereo not given) ?
Marked response: > 100 µM

Exam item: What measured TGI goes with `CC(C)(C)O/N=C/c1cc(NC(=S)c2ccccc2)ccc1Cl` ?
Marked response: 31.1 µM

###

- Tested on: HOP-92 NSCLC
- assay method text: NCI tumour cell line growth inhibition, 48 h
Listing of recorded GI50 by entry.

Exam item: What measured GI50 goes with CN(Cc1cnc2nc(N)nc(N)c2n1)c1ccc(C(=O)NC(CCC(=O)O)C(=O)O)c2ccccc12 (stereo not given) ?
Marked response: > 1000 µM

Exam item: What measured GI50 goes with `O=C1c2cccc3c(N4CCOCC4)ccc(c23)C(=O)N1CCN1CCN(CCCCCN2CCN(CCN3C(=O)c4cccc5c(N6CCOCC6)ccc(c45)C3=O)CC2)CC1` ?
Marked response: 76.6 µM

Exam item: What measured GI50 goes with OCC1OC(OC2(CO)OC(CO)C(O)C2O)C(O)C(O)C1O (stereo not given) ?
Marked response: > 100 µM

Exam item: What measured GI50 goes with `CC[n+]1c(-c2ccccc2)c2cc(N)ccc2c2ccc(N)cc21` ?
Marked response: 1.24 µM

Exam item: What measured GI50 goes with `S=C(Sc1ccc(Cl)cc1)Sc1ccc(Cl)cc1` ?
Marked response: 1.99 µM

###

- Test system: SK-OV-3 ovarian
- assay method text: NCI tumour cell line growth inhibition, 48 h; in the data active = GI50 below about 0.43 µM; inactive = the rest
Choose the fitting class; nothing outside active, inactive is accepted.

Reference set (2 entries):
| compound | label class |
| --- | --- |
| O=c1[nH]c2ccccc2cc1-c1nnc(Cc2ccccc2)o1 | inactive |
| OCc1ccc(-c2ccc(-c3ccc(CO)o3)o2)o1 | inactive |

Pending compound:
Exam item: Please state the recorded outcome for this compound: `C[C@]12CCc3nc(Nc4ccc(O)cc4)sc3C1=CC[C@@H]1[C@@H]2CC[C@]2(C)/C(=N/NC(N)=S)CC[C@@H]12`
Marked response: inactive

###

- System: K-562 leukemia
- assay method text: NCI tumour cell line growth inhibition, 48 h
Listing of recorded TGI by entry.

| compound | system tested | result |
| --- | --- | --- |
| O=C(O)c1ccccc1NCn1nc(-c2ccccc2O)oc1=S | K-562 leukemia | > 100 µM |
| COc1cc2c(cc1O)NC(=O)[C@@H]1C[C@@H](O)CN1C2=O | K-562 leukemia | > 100 µM |

Exam item: What measured TGI goes with `Cn1c2c(c3c(=O)[nH]ncc31)Cc1ccccc1-2` ?
Marked response: > 100 µM

Exam item: What measured TGI goes with `O=C(Nc1ccccc1C(=O)NC(=O)c1ccccc1NC(=O)c1ccccc1)c1ccccc1` ?
Marked response: 18.3 µM

Exam item: What measured TGI goes with CC(C)C(NCc1c2ccccc2[n+](C)c2ccccc12)C(=O)O (stereo unspecified) ?
Marked response: 18.5 µM

Exam item: What measured TGI goes with `CO[C@H]1C(=O)[C@]2(C)[C@@H](OC)C[C@H]3OC[C@@]3(OC(C)=O)[C@H]2[C@H](OC(=O)c2ccccc2)[C@]2(O)C[C@H](OC(=O)[C@H](O)[C@@H](NC(=O)OC(C)(C)C)c3ccccc3)C(C)=C1C2(C)C` ?
Marked response: > 100 µM

Exam item: What measured TGI goes with O=C(Nc1nc(=S)[nH][nH]1)C(=O)C(c1cnc2ccc([N+](=O)[O-])cc2n1)[N+](=O)[O-] (stereo unspecified) ?
Marked response: > 100 µM

Exam item: What measured TGI goes with `COc1ccc(N(CC(=O)O)N=O)cc1` ?
Marked response: > 100 µM

Exam item: What measured TGI goes with `O=c1c2ccc(Cl)cc2oc2c(CSc3ccccc3)cccc12` ?
Marked response: > 100 µM

Exam item: What measured TGI goes with `CC(C)(C)C1=NO[C@H]2[C@@H](NC(=O)c3ccccc3)CC[C@@H]12` ?
Marked response: > 100 µM

Exam item: What measured TGI goes with O=c1c2ccccc2nc(-c2cccc(Cl)c2)n1NC1OC(CO)C(O)C(O)C1O (stereo unspecified) ?
Marked response: > 100 µM
